- SYSTEM: Serine/threonine-protein kinase B-raf (Homo sapiens, UniProt P15056)
- Sequence (P15056 whole entry): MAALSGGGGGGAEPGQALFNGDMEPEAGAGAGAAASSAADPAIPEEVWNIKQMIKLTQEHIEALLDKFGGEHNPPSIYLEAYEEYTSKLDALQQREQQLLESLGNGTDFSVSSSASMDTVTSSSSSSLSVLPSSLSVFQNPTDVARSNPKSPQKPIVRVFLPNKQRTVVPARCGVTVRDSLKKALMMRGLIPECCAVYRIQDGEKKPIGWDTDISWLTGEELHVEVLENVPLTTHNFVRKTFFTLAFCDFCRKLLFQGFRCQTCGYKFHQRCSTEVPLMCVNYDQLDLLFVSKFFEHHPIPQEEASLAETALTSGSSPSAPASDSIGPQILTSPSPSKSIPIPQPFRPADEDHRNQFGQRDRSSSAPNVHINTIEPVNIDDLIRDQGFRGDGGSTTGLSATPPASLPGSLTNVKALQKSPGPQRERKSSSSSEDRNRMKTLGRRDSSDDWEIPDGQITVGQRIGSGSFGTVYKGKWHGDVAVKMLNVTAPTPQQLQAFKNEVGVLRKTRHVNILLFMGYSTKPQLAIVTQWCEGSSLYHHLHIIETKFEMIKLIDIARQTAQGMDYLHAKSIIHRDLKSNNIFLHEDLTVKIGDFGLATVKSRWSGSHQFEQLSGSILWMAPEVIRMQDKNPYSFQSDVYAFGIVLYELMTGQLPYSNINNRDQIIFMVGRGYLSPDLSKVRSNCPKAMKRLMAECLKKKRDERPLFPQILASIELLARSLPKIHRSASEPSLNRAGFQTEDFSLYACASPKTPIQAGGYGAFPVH
pKd: −log10 of the molar value.
Would you please tag the item yes when its pKd is 8 or above, and no when it is below?

Reference set, count: 5
• O/N=C/c1ccc(-c2[nH]c(-c3ccccc3)nc2-c2ccncc2)cc1 = yes
• Oc1cc(-c2[nH]c(-c3ccccc3)nc2-c2ccnnc2)ccc1Cl = no
• OCc1cccc(-c2[nH]c(-c3ccccc3)nc2-c2ccncc2)c1 = no
• N=C(NO)c1ccc(-c2[nH]c(-c3ccccc3)nc2-c2ccncc2)cc1 = no
• OCc1ccc(-c2[nH]c(-c3ccccc3)nc2-c2ccncc2)cc1 = no

Ask: Is the recorded value of pKd equal to or greater than 8 for this molecule? `Oc1cc(-c2nc(-c3ccccc3)[nH]c2-c2ccncc2)ccc1Cl`
Reply: yes

Ask: Is the recorded value of pKd equal to or greater than 8 for this molecule? `Oc1cc(-c2[nH]cnc2-c2ccncc2)ccc1Cl`
Reply: no

Ask: Is the recorded value of pKd equal to or greater than 8 for this molecule? `Oc1cc(-c2[nH]c(-c3ccco3)nc2-c2ccncc2)ccc1Cl`
Reply: yes

---

Consider the following pKd values measured on Serine/threonine-protein kinase B-raf (Homo sapiens, UniProt P15056).
By convention, pKd is the negative base-10 log of a molar concentration.

Known results for molecules:
• C/C(=N\O)c1ccc(-c2[nH]c(-c3ccccc3)nc2-c2ccncc2)cc1 = 7.96
• CC(C)(CNS(C)(=O)=O)c1nc(-c2ccc(Cl)c(O)c2)c(-c2ccncc2)[nH]1 = 8.00
• Oc1cc(-c2[nH]c(-c3ccccc3)nc2-c2ccncn2)ccc1Cl = 7.85
• Oc1ccc(-c2nc(-c3ccccc3)[nH]c2-c2ccncc2)cc1 = 6.50
• OCc1ccc(-c2[nH]c(-c3ccccc3)nc2-c2ccncc2)cc1O = 7.66

Ask: Provide Serine/threonine-protein kinase B-raf (Homo sapiens, UniProt P15056) pKd reading for `O/N=C/c1ccc(-c2[nH]c(-c3ccccc3)nc2-c2ccncc2)cc1Cl` .
Reply: 8.22

Ask: Provide Serine/threonine-protein kinase B-raf (Homo sapiens, UniProt P15056) pKd reading for `Nc1nccc(-c2[nH]c(-c3ccccc3)nc2-c2ccc(Cl)c(O)c2)n1` .
Reply: 8.24

Ask: Provide Serine/threonine-protein kinase B-raf (Homo sapiens, UniProt P15056) pKd reading for `CC(C)(CNC(=O)Nc1ccc(Cl)cc1)c1nc(-c2ccc(Cl)c(O)c2)c(-c2ccncc2)[nH]1` .
Reply: 7.68
